- Test system: lyase from M. costata
- Procedure details: Relative degrading rates of the lyase from M. costata towards various substrates
- Assay type: biochemical, Morchella costata
- Condition set: purified fungal lyase, section B.1.4.3
activity (maltotetraose as 100%) by entry:
Write it as a number; the unit % goes unstated.

Molecule	Tested system	activity (maltotetraose as 100%)
OCC1OC(OC2C(CO)OC(OC3C(CO)OC(O)C(O)C3O)C(O)C2O)C(O)C(O)C1O (centres unmarked)	lyase from M. costata	56

Need activity (maltotetraose as 100%) of OC[C@H]1O[C@H](O[C@H]2[C@H](O)[C@@H](O)[C@@H](O[C@H]3[C@H](O)[C@@H](O)[C@@H](O[C@H]4[C@H](O)[C@@H](O)[C@@H](O[C@H]5[C@H](O)[C@@H](O)[C@@H](O[C@H]6[C@H](O)[C@@H](O)[C@@H](O[C@H]7[C@H](O)[C@@H](O)C(O)O[C@@H]7CO)O[C@@H]6CO)O[C@@H]5CO)O[C@@H]4CO)O[C@@H]3CO)O[C@@H]2CO)[C@H](O)[C@@H](O)[C@@H]1O (some centres unmarked) , thanks.
76

I'd like to know its activity (maltotetraose as 100%). The molecule in question is OC[C@H]1O[C@H](O[C@H]2[C@H](O)[C@@H](O)[C@@H](O[C@H]3[C@H](O)[C@@H](O)[C@@H](O[C@H]4[C@H](O)[C@@H](O)[C@@H](O[C@H]5[C@H](O)[C@@H](O)[C@@H](O[C@H]6[C@H](O)[C@@H](O)C(O)O[C@@H]6CO)O[C@@H]5CO)O[C@@H]4CO)O[C@@H]3CO)O[C@@H]2CO)[C@H](O)[C@@H](O)[C@@H]1O (some centres unmarked)
97

activity (maltotetraose as 100%) lookup needed for OC[C@H]1O[C@H](O[C@H]2[C@H](O)[C@@H](O)[C@@H](O[C@H]3[C@H](O)[C@@H](O)[C@@H](O[C@H]4[C@H](O)[C@@H](O)C(O)O[C@@H]4CO)O[C@@H]3CO)O[C@@H]2CO)[C@H](O)[C@@H](O)[C@@H]1O (some centres unmarked) , thanks.
100

Need activity (maltotetraose as 100%) of OC[C@H]1O[C@H](O[C@H]2[C@H](O)[C@@H](O)C(O)O[C@@H]2CO)[C@H](O)[C@@H](O)[C@@H]1O (mixture of isomers) , thanks.
2
